Ki for Alpha-1A adrenergic receptor (Homo sapiens, UniProt P35348) - collated from the literature.
Value expressed in nM; do not type the unit.

compound	reading_unit	Ki
COc1ccccc1N1CCN(C[C@@H]2CO[C@@](CN3C(=O)CCCC3=O)(c3ccccc3)O2)CC1 (relative stereo)	nM	21.4

Q) Item CNc1ccc2c(c1)[C@H](NCCOc1cc(F)ccc1F)CCS2(=O)=O has what recorded Ki?
A) 1200

Q) Can you handle COc1ccccc1N1CCN(CCn2c(=O)[nH]c3sc(-c4ccccc4)cc3c2=O)CC1 next?
A) 0.868

Q) Can you handle CC(C)Oc1ccccc1N1CCN(CC(O)CNC(=O)c2ccc3c(c2)C(=O)N(c2ccc(O)cc2)C3=O)CC1 (centres undefined) next?
A) 0.88

Q) Can you handle COc1ccc(Cl)cc1N1CCN(CCn2c(=O)[nH]c3c([nH]c4ccccc43)c2=O)CC1 next?
A) 8.32

Q) Can you handle Cn1nc(Cl)c2cn3nc(NCCN4CCN(c5ccccc5Cl)CC4)ccc3c2c1=O next?
A) 5.93

Q) Can you handle Cc1ccc(CC2(O)CCN(C[C@H](O)Cc3ccc(O)cc3)CC2)cc1 next?
A) 7300

Q) Can you handle COC(=O)C1=C(C)NC(C)=C(C(=O)NCCCN2CCC(c3ccccc3)CC2)C1c1ccc(Cl)c([N+](=O)[O-])c1 (racemic) next?
A) 0.525

Q) Can you handle COc1ccccc1N1CCN(CCCNc2c(C(C)=O)c(-c3ccccc3)nn(C)c2=O)CC1 next?
A) 1.51

----------
pKi for the protein given by its sequence - collated from the literature.
Target protein (sequence): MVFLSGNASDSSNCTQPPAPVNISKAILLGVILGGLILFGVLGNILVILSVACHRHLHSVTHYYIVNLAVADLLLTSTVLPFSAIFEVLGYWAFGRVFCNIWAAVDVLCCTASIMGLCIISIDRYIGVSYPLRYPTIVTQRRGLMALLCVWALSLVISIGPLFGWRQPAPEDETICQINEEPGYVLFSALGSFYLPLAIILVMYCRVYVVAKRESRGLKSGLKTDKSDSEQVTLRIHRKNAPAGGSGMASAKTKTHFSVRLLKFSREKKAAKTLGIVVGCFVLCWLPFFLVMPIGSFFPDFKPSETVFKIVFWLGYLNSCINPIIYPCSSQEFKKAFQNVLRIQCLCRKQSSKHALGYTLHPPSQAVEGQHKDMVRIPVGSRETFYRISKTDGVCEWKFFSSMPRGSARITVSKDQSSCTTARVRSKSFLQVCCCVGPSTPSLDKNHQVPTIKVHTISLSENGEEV
pKi: −log10 of the molar value.
Kind request: treat 8 as inclusive, so pKi at 8 or higher is y, anything lower is n.

Take a look at these entries with their results.
compound	label_value
COc1ccc2c(c1OCCNC[C@H]1COc3ccccc3O1)NCC2.Cl.Cl	y
FC(F)(F)c1cccc(N2CCN(CCCCNc3nc(-c4ccccc4)cs3)CC2)c1	n
COC(=O)C1=C(C)NC(=O)N(C(=O)NCCCN2CCC(c3ccccc3)(c3ccccc3)CC2)C1c1ccc([N+](=O)[O-])cc1 (stereo unspecified)	y

Q) I'd appreciate it if you could say whether COc1ccccc1OCCNC[C@H]1CO[C@H](C(c2ccccc2)c2ccccc2)O1 (relative stereo) has pKi at least equal to 8.
A) n

Q) Can you handle COC(=O)C1=C(C)NC(C)=C(C(=O)NCCCN2CCC(c3ccccc3)CC2)C1c1ccc([N+](=O)[O-])cc1 (racemic) next?
A) y
